# studySystem: Integrin alpha-IIb/beta-3 (Homo sapiens, UniProt P08514+P05106)
# Sequence (P05106 27-788 limits assumed): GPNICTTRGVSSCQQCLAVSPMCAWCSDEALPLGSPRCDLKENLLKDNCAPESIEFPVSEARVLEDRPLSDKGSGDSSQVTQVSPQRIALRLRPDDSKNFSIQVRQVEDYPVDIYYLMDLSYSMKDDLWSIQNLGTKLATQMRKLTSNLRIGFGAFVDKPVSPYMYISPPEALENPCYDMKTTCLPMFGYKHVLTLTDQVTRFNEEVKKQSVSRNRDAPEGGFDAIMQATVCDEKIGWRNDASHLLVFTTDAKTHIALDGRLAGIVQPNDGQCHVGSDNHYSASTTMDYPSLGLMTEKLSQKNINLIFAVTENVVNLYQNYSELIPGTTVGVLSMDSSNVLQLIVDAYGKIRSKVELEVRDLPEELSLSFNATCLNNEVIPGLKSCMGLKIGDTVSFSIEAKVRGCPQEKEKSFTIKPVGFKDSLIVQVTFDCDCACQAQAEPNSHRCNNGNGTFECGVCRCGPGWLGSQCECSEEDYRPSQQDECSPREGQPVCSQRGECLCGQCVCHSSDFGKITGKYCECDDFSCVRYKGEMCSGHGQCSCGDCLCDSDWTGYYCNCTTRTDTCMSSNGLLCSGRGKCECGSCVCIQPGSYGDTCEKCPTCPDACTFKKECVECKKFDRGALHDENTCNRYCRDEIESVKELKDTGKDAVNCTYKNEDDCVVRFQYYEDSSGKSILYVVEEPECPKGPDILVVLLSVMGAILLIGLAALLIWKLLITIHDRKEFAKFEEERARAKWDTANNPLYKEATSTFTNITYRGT
# Sequence (P08514 32-887 limits assumed): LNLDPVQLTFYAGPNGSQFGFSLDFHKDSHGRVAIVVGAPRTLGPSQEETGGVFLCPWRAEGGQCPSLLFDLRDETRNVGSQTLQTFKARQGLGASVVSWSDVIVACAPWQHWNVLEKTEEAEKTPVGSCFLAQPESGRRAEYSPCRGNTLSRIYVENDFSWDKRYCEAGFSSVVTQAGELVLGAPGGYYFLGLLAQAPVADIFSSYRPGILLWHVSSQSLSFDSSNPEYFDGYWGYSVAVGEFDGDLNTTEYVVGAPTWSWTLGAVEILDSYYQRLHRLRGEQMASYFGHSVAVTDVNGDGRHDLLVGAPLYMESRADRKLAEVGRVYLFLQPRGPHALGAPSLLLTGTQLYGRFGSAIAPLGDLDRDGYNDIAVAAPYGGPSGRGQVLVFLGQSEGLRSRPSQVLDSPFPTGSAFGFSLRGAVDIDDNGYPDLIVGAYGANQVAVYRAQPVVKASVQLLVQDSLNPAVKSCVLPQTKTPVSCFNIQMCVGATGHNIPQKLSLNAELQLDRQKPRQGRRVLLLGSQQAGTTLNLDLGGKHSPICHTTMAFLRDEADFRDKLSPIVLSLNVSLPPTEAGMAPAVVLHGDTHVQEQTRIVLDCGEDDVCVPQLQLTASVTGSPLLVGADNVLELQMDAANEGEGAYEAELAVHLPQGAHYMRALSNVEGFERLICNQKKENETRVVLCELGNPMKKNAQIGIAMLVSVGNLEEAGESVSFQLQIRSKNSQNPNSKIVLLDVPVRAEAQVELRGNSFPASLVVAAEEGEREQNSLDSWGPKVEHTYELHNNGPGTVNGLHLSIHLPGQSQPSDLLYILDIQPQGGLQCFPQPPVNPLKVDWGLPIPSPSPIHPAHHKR
# Sequence (P08514 891-1039 limits assumed): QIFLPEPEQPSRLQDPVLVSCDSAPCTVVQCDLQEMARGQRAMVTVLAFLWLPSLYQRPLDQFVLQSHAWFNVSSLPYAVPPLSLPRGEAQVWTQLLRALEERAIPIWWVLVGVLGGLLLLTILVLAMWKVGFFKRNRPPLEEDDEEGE
# experimentDescription: Inhibition of human platelet aggregation induced by ADP
pIC50: −log10 of the molar value.
Label Condition met when pIC50 is at or above 6; otherwise label Condition not met.

{"columns": ["compound", "classLabel"],
 "data": [
  ["O=C(O)CCNC(=O)CC1CC(CCC2CCNCC2)=NO1 (configuration not stated)", "Condition met"],
  ["O=C(NC(C(=O)O)C1CC(c2ccc(OCCC3CCNCC3)cc2)=NO1)OCc1ccccc1 (configuration not stated)", "Condition not met"],
  ["O=C(O)CCC1CC(c2ccc(OCC3CCNCC3)cc2)=NO1 (configuration not stated)", "Condition not met"],
  ["N=C(N)c1ccc(C2=NO[C@H](CC(=O)NCCC(=O)O)C2)cc1", "Condition met"],
  ["O=C(O)CCNC(=O)CC1CC(CC2CCNCC2)=NO1 (configuration not stated)", "Condition not met"],
  ["O=C(O)CC1CC(c2ccc(OCCC3CCNCC3)cc2)=NO1 (configuration not stated)", "Condition not met"]
]}

Entry source: BindingDB's records for doi:10.1021/jm960626t
